- protocol-text: Plasma protein binding, equilibrium dialysis
- Type: in vitro ADME
- protocol-conditions: cynomolgus monkey, 25 μM, read-out: % Free in plasma
metric-name: fraction unbound at 25 μM

* C=CC(=O)N[C@H]1CCC[C@H]1NC(=O)c1sc2nccc3c2c1NC(=O)N3c1cnc(CC(C)C)cc1C (atropisomer, axis not shown) [compound of Formula (III)] | 0.0532

---

- System: P-gp (MDR1)
- protocol-text: in vitro
- protocol-conditions: dog, MDCK-MDR1
metric-name: Papp B→A at 5 μM

- COc1cc2nc(N3CCN(C(=O)c4ccco4)CC3)nc(N)c2cc1OC: 70.1 ×10⁻⁶ cm/s
- CC(C)NCC(O)COc1cccc2ccccc12 (stereo not drawn) [Propranolol, reference compound]: 38.3 ×10⁻⁶ cm/s
- C=CC(=O)N[C@H]1CCC[C@H]1NC(=O)c1sc2nccc3c2c1NC(=O)N3c1cnc(CC(C)C)cc1C (atropisomer, axis not shown): 55.4 ×10⁻⁶ cm/s
